measured.on: Hepatocyte nuclear factor 3-beta (Homo sapiens)
assay.remarks: ATG_FoxA2_CIS: Attagene CIS-FACTORIAL HepG2 Assay for human Forkhead box A2 (FOXA2) (AID 2282942)
assay.setup: HepG2 cis-reporter transcription factor activity, 24 h; actives raise or lower the signal
The source made the active and inactive calls. The calls were made as follows: active = hit-call score of the fitted dose curve at least 0.9, where 1 is the maximum; inactive = score below 0.9.
measured.quantity: outcome

Some solved cases for reference:
CN(C)c1ccc(N=NS(=O)(=O)O)cc1; inactive
C=CCCCCCCCCC(=O)O; inactive
Nc1nc2ncc(CNc3ccc(C(=O)N[C@@H](CCC(=O)O)C(=O)O)cc3)nc2c(=O)[nH]1; inactive
CC(C)=CCCC(C)CCO (configuration not stated); inactive

Next up:
Specify outcome for `CCCN(C1CCN(C(=O)C2CCNCC2)CC1)[C@@H]1CCc2ccc(OC)cc2C1` and stop.
inactive

Source of measurements: PubChem BioAssay (EPA / NIEHS)
